Target: HLA-A*02:06
Assay: IEDB peptide-MHC binding, purified MHC/competitive/radioactivity; filed as Kd, often an IC50 or EC50 that approximates it; bounds were set here for any values at or beyond the usual limits of such assays
Conditions: source organism: Hepacivirus hominis
pKd: −log10 of the molar value.
MEASURED_PROPERTY: pKd

# PRIMARY_SEQUENCE, MEASURED_PROPERTY, OBS_VALUE
data = [
    ("RNWAHSSL", "pKd", "≤ 4.23"),
]

====

Biological target: HLA-C*12:03
Test: IEDB peptide-MHC binding, purified MHC/direct/fluorescence; filed as Kd, often an IC50 or EC50 that approximates it; bounds were set here for any values at or beyond the usual limits of such assays
Details: source organism: West Nile virus

# PRIMARY_SEQUENCE, UNIT_NAME, Kd
measured = [
    ("YTMDGEYRL", "nM", 347),
]

====

Molecular target: HLA-A*03:01
Assay: IEDB peptide-MHC binding, purified MHC/competitive/radioactivity; filed as Kd, often an IC50 or EC50 that approximates it; bounds were set here for any values at or beyond the usual limits of such assays
Conditions: source organism: Vaccinia virus WR
Decision: Kd beneath 500 nM gives satisfied; Kd meeting or exceeding 500 nM gives not satisfied.

# PRIMARY_SEQUENCE, ASSAYED_TARGET, GROUP
data = [
    ("QAIEPSGNNY", "HLA-A*03:01", "not satisfied"),
    ("QMLTSGEYK", "HLA-A*03:01", "satisfied"),
    ("IICEDAMYY", "HLA-A*03:01", "not satisfied"),
    ("AVVADLSAR", "HLA-A*03:01", "satisfied"),
    ("YSHLLPTQR", "HLA-A*03:01", "not satisfied"),
    ("NFPQHVITK", "HLA-A*03:01", "not satisfied"),
    ("ESMASLKSLY", "HLA-A*03:01", "satisfied"),
    ("NSYISNIIY", "HLA-A*03:01", "not satisfied"),
    ("TLDQLEDSEY", "HLA-A*03:01", "not satisfied"),
    ("SIFPANINDK", "HLA-A*03:01", "not satisfied"),
    ("HLKVALYRR", "HLA-A*03:01", "not satisfied"),
    ("TFIMLEGETK", "HLA-A*03:01", "satisfied"),
    ("FVKKFGLCNY", "HLA-A*03:01", "not satisfied"),
    ("SMNVAVIDK", "HLA-A*03:01", "not satisfied"),
    ("DLVKSYSLIR", "HLA-A*03:01", "not satisfied"),
    ("DLVKSSFVK", "HLA-A*03:01", "not satisfied"),
    ("GLSETGFMR", "HLA-A*03:01", "not satisfied"),
    ("GFMRFFQLLR", "HLA-A*03:01", "not satisfied"),
    ("LIKKSDAKR", "HLA-A*03:01", "not satisfied"),
    ("PLYIDISDVK", "HLA-A*03:01", "satisfied"),
    ("HSVFKGFSDK", "HLA-A*03:01", "satisfied"),
    ("PSTVKTNLY", "HLA-A*03:01", "not satisfied"),
    ("FSKSTSPTR", "HLA-A*03:01", "not satisfied"),
]

Data provenance is the Immune Epitope Database (IEDB).
